Reported IC50 by item:
- Assay Summary: Cytotoxicity against human BGC823 cells assessed as inhibition of cell proliferation after 72 hrs by MTT assay
- Type: functional, cell-based
- Details: BGC-823, 72 h
Attribute Measured: IC50 (µM)

Structure Notation	Readout Value
CC1(C)CC[C@]2(C(=O)OCCCCCCCCn3ccc(=O)[nH]c3=O)CC[C@]3(C)C(=CC[C@@H]4[C@@]5(C)CC[C@H](O)C(C)(C)[C@@H]5CC[C@]43C)[C@@H]2C1	14.9
Cc1cn(CCCCOC(=O)[C@]23CCC(C)(C)C[C@H]2C2=CC[C@@H]4[C@@]5(C)CC[C@H](O)C(C)(C)[C@@H]5CC[C@@]4(C)[C@]2(C)CC3)c(=O)[nH]c1=O	1.13
Cc1cn(CCCCOC(=O)[C@]23CCC(C)(C)C[C@H]2C2=CC[C@@H]4[C@@]5(C)CC[C@H](O)C(C)(C)[C@@H]5CC[C@@]4(C)[C@]2(C)CC3)c(=O)n(CCCCOC(=O)[C@]23CCC(C)(C)C[C@H]2C2=CC[C@@H]4[C@@]5(C)CC[C@H](O)C(C)(C)[C@@H]5CC[C@@]4(C)[C@]2(C)CC3)c1=O	16

---

- Tested on: A549
- Assay Summary: Cytotoxicity against human A549 cells assessed as inhibition of cell proliferation after 72 hrs by MTT assay
- Type: functional, cell-based
- Details: A549, 72 h
pIC50: −log10 of the molar value.
Decide using pIC50: a value greater than or equal to 5 is label 1, a smaller one is label 0.

Structure Notation	Qualitative Label
CC1(C)CC[C@]2(C(=O)OCCCCCCn3ccc(=O)[nH]c3=O)CC[C@]3(C)C(=CC[C@@H]4[C@@]5(C)CC[C@H](O)C(C)(C)[C@@H]5CC[C@]43C)[C@@H]2C1	label 1
Cc1cn(CCOC(=O)[C@]23CCC(C)(C)C[C@H]2C2=CC[C@@H]4[C@@]5(C)CC[C@H](O)C(C)(C)[C@@H]5CC[C@@]4(C)[C@]2(C)CC3)c(=O)[nH]c1=O	label 0
CC1(C)CC[C@]2(C(=O)O)CC[C@]3(C)C(=CC[C@@H]4[C@@]5(C)CC[C@H](O)C(C)(C)[C@@H]5CC[C@]43C)[C@@H]2C1	label 0
CC1(C)CC[C@]2(C(=O)OCCCCn3ccc(=O)[nH]c3=O)CC[C@]3(C)C(=CC[C@@H]4[C@@]5(C)CC[C@H](O)C(C)(C)[C@@H]5CC[C@]43C)[C@@H]2C1	label 1
O=c1[nH]cc(F)c(=O)[nH]1	label 0
Cc1cn(CCCCOC(=O)[C@]23CCC(C)(C)C[C@H]2C2=CC[C@@H]4[C@@]5(C)CC[C@H](O)C(C)(C)[C@@H]5CC[C@@]4(C)[C@]2(C)CC3)c(=O)n(CCCCOC(=O)[C@]23CCC(C)(C)C[C@H]2C2=CC[C@@H]4[C@@]5(C)CC[C@H](O)C(C)(C)[C@@H]5CC[C@@]4(C)[C@]2(C)CC3)c1=O	label 1
Cc1cn(CCCCOC(=O)[C@]23CCC(C)(C)C[C@H]2C2=CC[C@@H]4[C@@]5(C)CC[C@H](O)C(C)(C)[C@@H]5CC[C@@]4(C)[C@]2(C)CC3)c(=O)[nH]c1=O	label 1
Cc1cn(CCCCCCOC(=O)[C@]23CCC(C)(C)C[C@H]2C2=CC[C@@H]4[C@@]5(C)CC[C@H](O)C(C)(C)[C@@H]5CC[C@@]4(C)[C@]2(C)CC3)c(=O)n(CCCCCCOC(=O)[C@]23CCC(C)(C)C[C@H]2C2=CC[C@@H]4[C@@]5(C)CC[C@H](O)C(C)(C)[C@@H]5CC[C@@]4(C)[C@]2(C)CC3)c1=O	label 1
CC1(C)CC[C@]2(C(=O)OCCCCCCn3ccc(=O)n(CCCCCCOC(=O)[C@]45CCC(C)(C)C[C@H]4C4=CC[C@@H]6[C@@]7(C)CC[C@H](O)C(C)(C)[C@@H]7CC[C@@]6(C)[C@]4(C)CC5)c3=O)CC[C@]3(C)C(=CC[C@@H]4[C@@]5(C)CC[C@H](O)C(C)(C)[C@@H]5CC[C@]43C)[C@@H]2C1	label 1
Cc1cn(CCCCCCCCOC(=O)[C@]23CCC(C)(C)C[C@H]2C2=CC[C@@H]4[C@@]5(C)CC[C@H](O)C(C)(C)[C@@H]5CC[C@@]4(C)[C@]2(C)CC3)c(=O)[nH]c1=O	label 1

---

- Tested on: HepG2
- Assay Summary: Cytotoxicity against human HepG2 cells assessed as inhibition of cell proliferation after 72 hrs by MTT assay
- Assay type: functional, cell-based
- Details: HepG2, 72 h
Reported IC50 by item:
Attribute Measured: IC50 (µM)

Structure Notation	Target Desc	Attribute Measured	Readout Value
CC1(C)CC[C@]2(C(=O)OCCn3ccc(=O)n(CCOC(=O)[C@]45CCC(C)(C)C[C@H]4C4=CC[C@@H]6[C@@]7(C)CC[C@H](O)C(C)(C)[C@@H]7CC[C@@]6(C)[C@]4(C)CC5)c3=O)CC[C@]3(C)C(=CC[C@@H]4[C@@]5(C)CC[C@H](O)C(C)(C)[C@@H]5CC[C@]43C)[C@@H]2C1	HepG2	IC50	111
Cc1cn(CCCCCCOC(=O)[C@]23CCC(C)(C)C[C@H]2C2=CC[C@@H]4[C@@]5(C)CC[C@H](O)C(C)(C)[C@@H]5CC[C@@]4(C)[C@]2(C)CC3)c(=O)[nH]c1=O	HepG2	IC50	5.09

---

- Test system: A549
- Assay Summary: Cytotoxicity against human A549 cells assessed as inhibition of cell proliferation after 72 hrs by MTT assay
- Format: functional, cell-based
- Details: A549, 72 h
pIC50: −log10 of the molar value.
Decide using pIC50: a value greater than or equal to 5 is Met, a smaller one is Not met.

Structure Notation	Qualitative Label
Cc1cn(CCCCCCOC(=O)[C@]23CCC(C)(C)C[C@H]2C2=CC[C@@H]4[C@@]5(C)CC[C@H](O)C(C)(C)[C@@H]5CC[C@@]4(C)[C@]2(C)CC3)c(=O)[nH]c1=O	Met
Cc1cn(CCOC(=O)[C@]23CCC(C)(C)C[C@H]2C2=CC[C@@H]4[C@@]5(C)CC[C@H](O)C(C)(C)[C@@H]5CC[C@@]4(C)[C@]2(C)CC3)c(=O)n(CCOC(=O)[C@]23CCC(C)(C)C[C@H]2C2=CC[C@@H]4[C@@]5(C)CC[C@H](O)C(C)(C)[C@@H]5CC[C@@]4(C)[C@]2(C)CC3)c1=O	Met
CC1(C)CC[C@]2(C(=O)OCCn3ccc(=O)[nH]c3=O)CC[C@]3(C)C(=CC[C@@H]4[C@@]5(C)CC[C@H](O)C(C)(C)[C@@H]5CC[C@]43C)[C@@H]2C1	Met
CC1(C)CC[C@]2(C(=O)OCCCCCCCCn3ccc(=O)n(CCCCCCCCOC(=O)[C@]45CCC(C)(C)C[C@H]4C4=CC[C@@H]6[C@@]7(C)CC[C@H](O)C(C)(C)[C@@H]7CC[C@@]6(C)[C@]4(C)CC5)c3=O)CC[C@]3(C)C(=CC[C@@H]4[C@@]5(C)CC[C@H](O)C(C)(C)[C@@H]5CC[C@]43C)[C@@H]2C1	Not met
Cc1cn(CCCCCCCCOC(=O)[C@@]23CCC(C)(C)C[C@@H]2C2=CC[C@H]4[C@]5(C)CC[C@@H](O)C(C)(C)[C@H]5CC[C@]4(C)[C@@]2(C)CC3)c(=O)n(CCCCCCCCOC(=O)[C@@]23CCC(C)(C)C[C@@H]2C2=CC[C@H]4[C@]5(C)CC[C@@H](O)C(C)(C)[C@H]5CC[C@]4(C)[C@@]2(C)CC3)c1=O	Met
CC1(C)CC[C@]2(C(=O)OCCCCn3ccc(=O)n(CCCCOC(=O)[C@]45CCC(C)(C)C[C@H]4C4=CC[C@@H]6[C@@]7(C)CC[C@H](O)C(C)(C)[C@@H]7CC[C@@]6(C)[C@]4(C)CC5)c3=O)CC[C@]3(C)C(=CC[C@@H]4[C@@]5(C)CC[C@H](O)C(C)(C)[C@@H]5CC[C@]43C)[C@@H]2C1	Met

---

- System: HepG2
- Assay Summary: Cytotoxicity against human HepG2 cells assessed as inhibition of cell proliferation after 72 hrs by MTT assay
- Type: functional, cell-based
- Details: HepG2, 72 h
Attribute Measured: IC50 (µM)

                         structure_notation  attribute_measured  readout_value
0  Cc1cn(CCOC(=O)[C@]23CCC(C)(C)C[C@H]2C2=CC[C@@H]4[C@@]5(C)CC[C@H](O)C(C)(C)[C@@H]5CC[C@@]4(C)[C@]2(C)CC3)c(=O)[nH]c1=O                IC50           5.41
1  Cc1cn(CCCCOC(=O)[C@]23CCC(C)(C)C[C@H]2C2=CC[C@@H]4[C@@]5(C)CC[C@H](O)C(C)(C)[C@@H]5CC[C@@]4(C)[C@]2(C)CC3)c(=O)[nH]c1=O                IC50           2.41
2                   O=c1[nH]cc(F)c(=O)[nH]1                IC50           55.7

The values you see were collected from ChEMBL document CHEMBL3817739.
